- Method summary: Single-turnover
- Set-up: species or system [13, 20]
- Condition summary: read-out: Kd (incoming nucleotide, Pol•DNA complex); Pol η; opposite template dT; 37 °C
Measured endpoint: Kd
# number then unit; no other words

Could you share which Kd value was measured for Nc1ncnc2c1ncn2CCOCP(=O)(O)OP(=O)(O)OP(=O)(O)O [PMEA-DP] ?
55 µM

====

- Method summary: Single-turnover
- Parameters: species or system [13, 20]
- Condition summary: read-out: Kd (incoming nucleotide, Pol•DNA complex); Pol η; opposite template dA; 37 °C
Measured endpoint: pKd
Give bare numbers, as −log10 of the molar value.

Value lookup for pKd; key = Cc1cn([C@@H]2C[C@@H](O)[C@H](COP(=O)(O)OP(=O)(O)OP(=O)(O)O)O2)c(=O)[nH]c1=O [L-TBV-TP, β-L-2′-deoxythymidine 5′-triphosphate]
3.40

====

- Method summary: Single-turnover
- Design: species or system [13, 20]
- Condition summary: read-out: Kd (incoming nucleotide, Pol•DNA complex); Pol ι; opposite template dA; 37 °C
Measured endpoint: pKd
Numbers only, as −log10 of the molar value.

Consider the compound Cc1cn([C@@H]2C[C@@H](O)[C@H](COP(=O)(O)OP(=O)(O)OP(=O)(O)O)O2)c(=O)[nH]c1=O [L-TBV-TP, β-L-2′-deoxythymidine 5′-triphosphate] and give its measured pKd.
4.00

====

- Method summary: Single-turnover
- Parameters: species or system [13, 20]
- Condition summary: read-out: Kd (incoming nucleotide, Pol•DNA complex); Pol λ; opposite template dT (21-19C-41merTG); 37 °C
Measured endpoint: pKd
One number for each entry, as −log10 of the molar value.

// pKd lookup, key: Nc1ncnc2c1ncn2CCOCP(=O)(O)OP(=O)(O)OP(=O)(O)O
5.35

====

- Method summary: Single-turnover
- Set-up: species or system [13, 20]
- Condition summary: read-out: Kd (incoming nucleotide, Pol•DNA complex); Pol β; opposite template dC; 37 °C
Exercise: for every item that follows, state its recorded pKd.
One number for each entry, as −log10 of the molar value.

C=C1[C@H](COP(=O)(O)OP(=O)(O)OP(=O)(O)O)[C@@H](O)C[C@@H]1n1cnc2c(=O)[nH]c(N)nc21 [ETV-TP, entecavir 5′-triphosphate]	6.59

Which pKd reading was recorded for the molecule Nc1nc2c(ncn2[C@H]2C[C@H](O)[C@@H](COP(=O)(O)OP(=O)(O)OP(=O)(O)O)O2)c(=O)[nH]1 [dGTP] ?
5.06

====

- Method summary: Single-turnover
- Parameters: species or system [13, 20]
- Condition summary: read-out: Kd (incoming nucleotide, Pol•DNA complex); Pol β; opposite template dT; 37 °C
Measured endpoint: Kd

Recorded Kd for Nc1ncnc2c1ncn2CCOCP(=O)(O)OP(=O)(O)OP(=O)(O)O , please?
65 µM
